- System name: T1, HSP70 (human HSP70; the antigen of the binning, humanization and variant binding assays) (human, UniProt P0DMV8 1-641, limits assumed)
- T1 construct: also called hu HSP70
- T1 sequence (P0DMV8 whole entry, change not shown): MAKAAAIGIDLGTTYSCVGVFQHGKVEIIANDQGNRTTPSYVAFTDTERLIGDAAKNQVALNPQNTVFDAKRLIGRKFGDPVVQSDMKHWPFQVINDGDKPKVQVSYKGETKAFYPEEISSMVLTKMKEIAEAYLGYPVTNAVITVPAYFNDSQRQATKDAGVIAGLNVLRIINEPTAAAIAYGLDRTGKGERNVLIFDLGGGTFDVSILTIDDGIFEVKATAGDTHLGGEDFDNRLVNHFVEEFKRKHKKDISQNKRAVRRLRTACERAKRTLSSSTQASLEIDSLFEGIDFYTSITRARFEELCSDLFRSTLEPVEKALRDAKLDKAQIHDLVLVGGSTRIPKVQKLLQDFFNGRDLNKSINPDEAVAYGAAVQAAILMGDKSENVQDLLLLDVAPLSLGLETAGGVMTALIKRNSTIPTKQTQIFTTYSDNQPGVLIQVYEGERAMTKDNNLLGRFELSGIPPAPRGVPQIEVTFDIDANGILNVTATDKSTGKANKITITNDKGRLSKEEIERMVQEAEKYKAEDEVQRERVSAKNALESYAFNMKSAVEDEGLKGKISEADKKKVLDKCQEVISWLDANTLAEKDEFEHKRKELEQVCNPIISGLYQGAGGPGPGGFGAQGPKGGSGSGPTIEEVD
- Protocol notes: BLI, anti-human Fc capture, antigen 100 nM
Metric name: % Diss (%)
Give bare numbers, in %.

The examples below pair each entry with its known result.
What the record says about h77A-1.79 (antibody, V domains shown, captured by anti-human Fc) VH: QIQLVQSGAEVKKPGASVKVSCKASGYTFTKYGMNWVRQAPGQGLEWMGWINTYTGEPRYADDFKGRFTFTTDTSTSTAYMELRSLRSDDTAVYFCARYDHRMDYWGQGTLVTVSS VL: EIVLTQSPDSLAVSLGERATINCKSSQSLLNSGTRKNYLAWYQQKPGQSPKLLIYWTSTRESGVPDRFSGSGSGTDFTLTIDSLQAEDVAVYYCKQSYNLYTFGGGTKVEIK : % Diss is -37.4

h77A-1.2 (antibody, V domains shown, captured by anti-human Fc) VH: QIQLVQSGAEVKKPGASVKVSCKASGYTFTNYGMNWVRQAPGQGLEWMGWINTYTGEPRYADDFKGRFTFTTDTSTSTAYMELRSLRSDDTAVYFCARYDHAMDYWGQGTLVTVSS VL: EIVLTQSPDSLAVSLGERATINCKSSQSLLNSGTRKNYLAWYQQKAGQSPKLLIYWTSTRESGVPDRFSGSGSGTDFTLTIDSLQAEDVAVYYCKQSYTLYTFGGGTKVEIK has a reported % Diss of -1.81

***
Entry under test: h77A-1 (antibody, V domains shown, also called hVH-1 + hVL-1) VH: QIQLVQSGAEVKKPGASVKVSCKASGYTFTNYGMNWVRQAPGQGLEWMGWINTYTGEPTYADDFKGRFTFTTDTSTSTAYMELRSLRSDDTAVYFCARYDHAMDYWGQGTLVTVSS VL: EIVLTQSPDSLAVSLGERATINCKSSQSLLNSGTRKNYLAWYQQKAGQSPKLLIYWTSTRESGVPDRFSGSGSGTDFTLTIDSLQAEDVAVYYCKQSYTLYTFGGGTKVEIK . Its % Diss was 7.63
